Target: Protein-glutamine gamma-glutamyltransferase 2 (Homo sapiens)
Sequence (P21980 whole entry): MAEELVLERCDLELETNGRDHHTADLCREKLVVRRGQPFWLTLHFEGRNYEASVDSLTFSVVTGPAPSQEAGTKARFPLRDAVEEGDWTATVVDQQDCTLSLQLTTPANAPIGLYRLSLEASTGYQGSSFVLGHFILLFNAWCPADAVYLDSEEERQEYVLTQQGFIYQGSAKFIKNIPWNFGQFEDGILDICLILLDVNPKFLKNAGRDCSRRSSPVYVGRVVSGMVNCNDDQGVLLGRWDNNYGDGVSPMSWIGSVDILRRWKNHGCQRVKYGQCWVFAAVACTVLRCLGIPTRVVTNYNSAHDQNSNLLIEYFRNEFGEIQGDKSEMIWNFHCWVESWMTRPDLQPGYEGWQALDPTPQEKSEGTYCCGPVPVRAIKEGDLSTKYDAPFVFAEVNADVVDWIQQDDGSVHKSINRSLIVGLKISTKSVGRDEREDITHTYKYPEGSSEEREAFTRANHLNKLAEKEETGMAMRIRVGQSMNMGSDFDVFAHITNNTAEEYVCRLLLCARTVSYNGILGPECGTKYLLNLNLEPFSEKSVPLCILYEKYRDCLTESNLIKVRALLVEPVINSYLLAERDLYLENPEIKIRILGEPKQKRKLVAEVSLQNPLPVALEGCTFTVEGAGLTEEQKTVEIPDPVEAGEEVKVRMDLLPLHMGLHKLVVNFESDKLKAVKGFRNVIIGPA
Parameter pIC50: see the listing below.
In plain terms, pIC50 is the concentration in mol/L turned into minus its base-10 logarithm.

[[record]]
mol = "C=CS(=O)(=O)NCC(=O)N1CCN(C(=O)C23CC4CC(CC(C4)C2)C3)CC1"
reading = 6.06

[[record]]
mol = "C[S+](C)CC(=O)NCC(=O)N1CCN(C(=O)OCc2ccccc2)CC1"
reading = 5.85

[[record]]
mol = "O=C(CBr)NCC(=O)N1CCN(C(=O)OCC23CC4CC(CC(C4)C2)C3)CC1"
reading = 8.20


# pIC50 (compound: C=CC(=O)NCC(=O)N1CCN(C(=O)OCc2ccc3ccccc3c2)CC1 ) is 6.36

# pIC50 (compound: C=CC(=O)NCC(=O)N1CCN(C(=O)OCCC23CC4CC(CC(C4)C2)C3)CC1 ) is 6.05

Every entry's value here was drawn from BindingDB's records for doi:10.1016/j.chembiol.2015.08.013.
